# assay info: chemical genetic growth profiling, strain panel (AID 1159580);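 note: tested at 20 µM; growth read once vehicle control cultures reached saturation at 30 °C; 1 = growth at the plate median or of vehicle wells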
# condition: S. cerevisiae deletion strains, growth OD, locus YER167W, strain BCK2, active compounds read low
About 2,000 (36%) of roughly 5,500 compounds were called active. Roughly 18% stayed inconclusive and do not appear here. The list shows a part of the results.
readout label: normalized growth
# output: bare number, no unit

Solved cases (5 shown):
{"compound": "CCCCNc1ccc(C(=O)OCCN(C)C)cc1", "result value": 1.01}
{"compound": "CCCCOC(=O)c1ccccc1C(=O)OCc1ccccc1", "result value": 0.983}
{"compound": "C=C1C(=O)O[C@@H]2C3O[C@]3(C)CC/C=C(\\C)CC[C@@H]12 (stereo partly specified)", "result value": 0.694}
{"compound": "C[C@@H]1C(=O)OC2[C@H](O)C34[C@@H]5OC(=O)[C@@]3(O[C@@H]3OC(=O)[C@H](O)[C@@]34[C@H](C(C)(C)C)[C@H]5O)[C@]21O (stereo partly specified)", "result value": 0.996}
{"compound": "CCCCOC(=O)c1ccc(N)cc1", "result value": 0.906}

Entry Nc1ccn(C2O[C@H](CO)[C@@H](O)[C@@H]2O)c(=O)n1 (stereo partly specified) ; normalized growth = 1.01

Sure, the documented normalized growth for CC(=O)N[C@@H](CS)C(=O)O is 1.01

Reported normalized growth for C=C1C(=O)OC2CC1C(OC(C)=O)C/C(C)=C/CC/C(C)=C/CC[C@]2(C)O (stereo partly specified) was 1.01

Documented normalized growth of CCN(CC)CCOC(=O)c1ccc(N)cc1 : 1

// normalized growth value for CCCCCCOc1ccccc1C(N)=O : 0.367

Recorded result, C=C1C(C)C2C(Cc3ccccc3)NC(=O)C23OC(=O)/C=C/C(O)CCCC(C)C/C=C/C3C1O (stereo unspecified) , normalized growth: 1.01

====

# assay info: chemical genetic growth profiling, strain panel (AID 1159580)
# condition: S. cerevisiae deletion strains, growth OD, locus YBR021W, strain FUR4, active compounds read low
The campaign covered roughly 5,500 compounds. About 2,000 (36%) were called active. Roughly 18% stayed inconclusive and do not appear here. Some of the results follow.
readout label: normalized growth
Reply briefly: the number, and no unit.

{"compound": "CC[C@H](C)C(=O)O[C@H]1CCC=C2C=C[C@H](C)C(CCC3C[C@@H](O)CC(=O)O3)[C@H]21 (stereo not given in full)", "readout label": "normalized growth", "result value": 0.958}
{"compound": "COc1cc2occ(-c3ccccc3)c(=O)c2c(OC)c1C", "readout label": "normalized growth", "result value": 0.923}
{"compound": "O=C1[C@H](CCC(O)c2ccc(F)cc2)[C@@H](c2ccc(O)cc2)N1c1ccc(F)cc1 (stereo not given in full)", "readout label": "normalized growth", "result value": 0.962}
{"compound": "Nc1ccn(C2O[C@H](CO)[C@@H](O)[C@@H]2O)c(=O)n1 (stereo not given in full)", "readout label": "normalized growth", "result value": 1.02}

Note: attention shifts to another entry.
// recorded normalized growth for CC(C)(C)CC(C)(C)c1ccc(O)c(Cc2ccc(Cl)cc2Cl)c1 : 0.993

====

# assay info: chemical genetic growth profiling, strain panel (AID 1159580)
# condition: S. cerevisiae deletion strains, growth OD, locus YLR268W, strain sec22
About 2,000 (36%) of roughly 5,500 compounds were called active. Inconclusive results (about 18%) are left out. No stated cut-off is given here; in the data, active means normalized growth mostly below about 0.91 (no sharp cut-off); inconclusive means no clear call, values can overlap the other calls; inactive means mostly above about 0.92. The list shows a part of the results.
Classes to choose from: active, inactive

{"compound": "Cc1c(Cl)cccc1Nc1ccccc1C(=O)O", "class name": "active"}
{"compound": "C=C1C(=O)OC2CC1C(OC(C)=O)C/C(C)=C/CC/C(C)=C/CC[C@]2(C)O (some centres not stated)", "class name": "inactive"}
{"compound": "COC(=O)C1=CCCN(C)C1", "class name": "inactive"}
{"compound": "Nc1ccn(C2O[C@H](CO)[C@@H](O)[C@@H]2O)c(=O)n1 (some centres not stated)", "class name": "inactive"}
{"compound": "COc1c2ccoc2c(OC)c2oc(=O)ccc12", "class name": "inactive"}
{"compound": "C=C1C(=O)O[C@@H]2C[C@@]3(C)CCC[C@H](C)C3=C[C@H]12", "class name": "active"}
{"compound": "Cn1c(=O)c2[nH]cnc2n(C)c1=O", "class name": "inactive"}
{"compound": "C=C1C(=O)O[C@@H]2C3O[C@]3(C)CC/C=C(\\C)CC[C@@H]12 (some centres not stated)", "class name": "active"}

Enquiry: What was the test verdict on Cc1ccc(Cl)c(Nc2ccccc2C(=O)O)c1Cl ?
Return: active

Enquiry: What did the test return for O=C1[C@H](CCC(O)c2ccc(F)cc2)[C@@H](c2ccc(O)cc2)N1c1ccc(F)cc1 (some centres not stated) ?
Return: inactive

Enquiry: Test call for this compound, please: O=C(O)CN1C(=O)c2cccc3cccc(c23)C1=O
Return: inactive

Enquiry: What was the test verdict on CC(C)NNC(=O)c1ccncc1 ?
Return: inactive

====

# assay info: chemical genetic growth profiling, strain panel (AID 1159580);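 note: tested at 20 µM; growth read once vehicle control cultures reached saturation at 30 °C; 1 = growth at the plate median or of vehicle wells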
# condition: S. cerevisiae deletion strains, growth OD, locus YGR078C, strain PAC10
In all, about 5,500 compounds went through this assay and about 2,000 (36%) were called active. Roughly 18% stayed inconclusive and do not appear here. No stated cut-off is given here; in the data, active means normalized growth mostly below about 0.91 (no sharp cut-off); inconclusive means no clear call, values can overlap the other calls; inactive means mostly above about 0.92. The list shows a part of the results.
Pick one: t for active, f for inactive

{"compound": "C=C1CCC2C(CC2(C)C)C(=O)CCC1O (centres undefined)", "class name": "f"}
{"compound": "COc1ccc2c(c1)O[C@H]1c3ccc(OC)cc3OC[C@@H]21", "class name": "f"}
{"compound": "O=C1[C@H](CCC(O)c2ccc(F)cc2)[C@@H](c2ccc(O)cc2)N1c1ccc(F)cc1 (some centres undefined)", "class name": "f"}
{"compound": "CC(C)(C)CC(C)(C)c1ccc(O)c(Cc2ccc(Cl)cc2Cl)c1", "class name": "f"}
{"compound": "Cc1cccc2c1N(C(=S)Nc1ccccc1Cl)CCC2", "class name": "t"}
{"compound": "OCc1cnc[nH]1", "class name": "f"}
{"compound": "CC(C)(C)S(=O)(=O)/C(C#N)=C/N1CCCCC1", "class name": "f"}
{"compound": "NC(=O)C1=CN(C2OC(COP(=O)(O)OP(=O)(O)OC[C@H]3O[C@@H](n4cnc5c(N)ncnc54)C(OP(=O)(O)O)[C@H]3O)C(O)C2O)C=CC1 (some centres undefined)", "class name": "f"}

Enquiry: Per the records of this test, what outcome belongs to CCCCOC(=O)c1ccccc1C(=O)OCCCC ?
Return: f

Enquiry: In this assay, the call recorded for CCCNC1CCc2nc(N)sc2C1 (centres undefined) was what?
Return: f

====

# assay info: chemical genetic growth profiling, strain panel (AID 1159580);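 note: tested at 20 µM; growth read once vehicle control cultures reached saturation at 30 °C; 1 = growth at the plate median or of vehicle wells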
# condition: S. cerevisiae deletion strains, growth OD, locus YDR502C, strain sam2, active compounds read low
Out of some 5,500 compounds screened, about 2,000 (36%) were called active. Inconclusive results (about 18%) are left out. This is one part of the list.
Cut-off 1 on normalized growth: below means yes, at or above means no.

Illustrative cases are given below, each with its answer.
{"compound": "C=C1CCC(OC(C)=O)/C(C)=C/C[C@@H]2[C@@H]1CC2(C)C (some centres undefined)", "class name": "no"}
{"compound": "CC1=CC2C(CC1=O)C(C)=CCC2C(C)C (centres undefined)", "class name": "yes"}
{"compound": "C=C1CCC2C(CC2(C)C)C(=C)CC/C1=N\\O (centres undefined)", "class name": "yes"}
{"compound": "Clc1cccc(Cl)c1NC1=NCCN1", "class name": "no"}

Enquiry: normalized growth strictly < 1 for this compound? C=C1CCC(C2CC(=O)OC2=O)C(=O)CCC2C1CC2(C)C (centres undefined)
Return: no

====

# assay info: chemical genetic growth profiling, strain panel (AID 1159580);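 note: tested at 20 µM; growth read once vehicle control cultures reached saturation at 30 °C; 1 = growth at the plate median or of vehicle wells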
# condition: S. cerevisiae deletion strains, growth OD, locus YHR030C, strain SLT2, active compounds read low
Among all 5,500 compounds or so, about 2,000 (36%) were called active. Not shown: some 18% with an inconclusive outcome. Some of the results follow.
Strictly below 1 in normalized growth: Yes. Otherwise: No.

Enquiry: Consider O=[N+]([O-])c1ccc2oc(C(O)c3cccc(Cl)c3)cc2c1 (configuration not stated) . Does its normalized growth lie strictly below 1?
Return: No

Enquiry: Please state whether normalized growth is below 1 for CC(C)(CCC(C)(C)N1C(=O)c2cccc3cccc(c23)C1=O)N1C(=O)c2cccc3cccc(c23)C1=O
Return: Yes

Enquiry: Say whether its normalized growth is strictly beneath 1. Entry: O=[N+]([O-])c1ccc2oc(C(O)c3ccc(-c4ccccc4)cc3)cc2c1 (configuration not stated)
Return: Yes

Enquiry: Determine whether this compound shows normalized growth lower than 1 (ties excluded): CC(C)(CO)[C@@H](O)C(=O)NCCCO
Return: No

Enquiry: In the record for N#CC(C#N)=Cc1ccc(-c2ccccc2C(F)(F)F)o1 , is normalized growth less than 1?
Return: Yes

Enquiry: Could you please tell me whether normalized growth recorded for O=C(c1ccccc1)c1cc2c(cc1Br)OCCO2 is less than 1?
Return: Yes

Enquiry: Regarding O=C(Nc1ccc(OC(F)(F)F)cc1)N1CCN(c2nc(-c3ccccc3)ns2)CC1 , kindly confirm whether its normalized growth is beneath 1.
Return: Yes

Enquiry: Lab note: confirm whether the reported normalized growth for this compound is below 1, equality not counting. compound: O=C(Nc1ccc(OC(F)(F)F)cc1)OC1CN(C(c2ccccc2)c2ccccc2)C1
Return: Yes

Enquiry: Report whether reported normalized growth is lower than 1 (strictly) for S=c1[nH]nc(Nc2ccc(I)cc2)s1
Return: Yes
